assayedSystem: furin, P09958;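 also: purified furin at 1:10 enzyme:substrate in 50 mM HEPES pH 7.5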
Sequence (P09958 whole entry): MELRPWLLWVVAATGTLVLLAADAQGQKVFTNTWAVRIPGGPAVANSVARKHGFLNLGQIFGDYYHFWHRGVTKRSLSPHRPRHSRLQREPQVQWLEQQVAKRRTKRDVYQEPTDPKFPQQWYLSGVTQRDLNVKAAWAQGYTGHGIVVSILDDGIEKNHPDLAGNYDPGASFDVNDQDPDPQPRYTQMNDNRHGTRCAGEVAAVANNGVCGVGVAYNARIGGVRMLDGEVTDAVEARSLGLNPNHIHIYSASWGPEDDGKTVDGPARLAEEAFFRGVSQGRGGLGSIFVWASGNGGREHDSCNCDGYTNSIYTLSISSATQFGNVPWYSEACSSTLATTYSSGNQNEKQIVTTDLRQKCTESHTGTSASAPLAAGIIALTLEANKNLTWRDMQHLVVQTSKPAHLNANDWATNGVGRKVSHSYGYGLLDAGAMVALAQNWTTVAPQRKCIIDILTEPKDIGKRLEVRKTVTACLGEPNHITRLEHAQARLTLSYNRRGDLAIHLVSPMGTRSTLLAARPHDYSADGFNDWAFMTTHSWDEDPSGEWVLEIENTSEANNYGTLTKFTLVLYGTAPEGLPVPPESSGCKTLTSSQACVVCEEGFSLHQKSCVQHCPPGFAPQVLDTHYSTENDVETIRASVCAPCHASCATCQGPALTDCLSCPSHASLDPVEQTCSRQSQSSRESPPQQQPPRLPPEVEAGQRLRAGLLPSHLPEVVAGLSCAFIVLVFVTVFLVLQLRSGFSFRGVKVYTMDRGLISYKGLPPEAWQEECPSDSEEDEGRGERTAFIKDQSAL
test: furin cleavage Z-score vs untreated control; higher = more cleavage, active = 3.5 or more, inactive = 1 or less, 8 variable residues between constant flanks
conditions: 7.5 min
This is one part of the list. How many sequences the whole screen found active is unknown.
Pick from active, inactive when you respond.

- residues: "CAEVMTSTWVAGNASASA [HC2186]"
  classification: "inactive"
- residues: "CAIRQVGDFHAGNASASA [HC1207]"
  classification: "inactive"
- residues: "CATLLRAARSAGNASASA [FS-1659]"
  classification: "active"
- residues: "CANNARAARSAGNASASA [FS-1547]"
  classification: "active"
- residues: "CAWNKRKKRQAGNASASA [FS-968]"
  classification: "active"

What did the test return for CATCGFADLMAGNASASA [HC224] ?
inactive

What did the test return for CAAEVRSKRRAGNASASA [FS-3] ?
active

What did the test return for CAAERRSVIRAGNASASA [FS-1666] ?
inactive

What did the test return for CAIRSRVLREAGNASASA [FS-804] ?
active
